- Tested on: 786-0 renal
- test name: NCI tumour cell line growth inhibition, 48 h
Each entry below carries its recorded TGI.

For orientation, consider the following solved cases.
molecule=COC(=O)Nc1nc2ccc(S(=O)(=O)SC)cc2[nH]1 result="16.9 µM"
molecule=CCNCCNc1cc(-c2ccc(C(F)(F)F)cc2)c(C#N)c2nc3ccccc3n12 result="3.06 µM"
molecule=C=C(C)[C@@H]1CC[C@]2(CO)CC[C@]3(C)[C@H](CC[C@@H]4[C@@]5(C)C=C(C#N)C(=O)C(C)(C)[C@@H]5CC[C@]43C)[C@@H]12 result="3.98 µM"

Continue with the next molecule.
Req: Record request: TGI value, item `CC1=CC(C)(C)N=C2SC(c3ccc(N)cc3)=NN12`
Resp: > 100 µM

###

Each entry below carries its recorded TGI.
- Tested on: HOP-62 NSCLC
- test name: NCI tumour cell line growth inhibition, 48 h
The reply should contain only the number, in µM.

compound=COc1c(C(=O)/C=C/c2ccccc2)c(O)cc2occc12 result_units=µM measured_number=25.2

Req: What is its TGI for HOP-62 NSCLC? Entry: `CCOC(=O)c1c(N2CCOCC2)[nH]c(=O)c(C(c2c(Cl)cccc2Cl)c2c(O)c(C(=O)OCC)c(N3CCOCC3)[nH]c2=O)c1O`
Resp: 30.4

Req: What is its TGI for HOP-62 NSCLC? Entry: `Cc1ccc2c3c1O[C@H]1c4[nH]c5ccccc5c4C[C@@]4(O)[C@@H](C2)N(CC2CC2)CC[C@]314`
Resp: 33.3

Req: What is its TGI for HOP-62 NSCLC? Entry: `COc1ccc(-c2[nH]c3ccc(OC)cc3c2/C=C(\C#N)S(=O)(=O)c2ccccc2)cc1`
Resp: 48.1

Req: What is its TGI for HOP-62 NSCLC? Entry: CCCC(CCC)NCC(O)c1cc(-c2ccc(C(F)(F)F)cc2)nc(C(F)(F)F)c1 (stereo not drawn)
Resp: 3.12

Req: What is its TGI for HOP-62 NSCLC? Entry: `Cc1sc2nc(-c3cccc([N+](=O)[O-])c3)c(/C=N/N=C(N)N)n2c1C`
Resp: 3.1

Req: What is its TGI for HOP-62 NSCLC? Entry: `O=C1/C(=C(/c2ccccc2)N2CCOCC2)Cc2ccccc21`
Resp: 27.1

Req: What is its TGI for HOP-62 NSCLC? Entry: `CCC(=O)Oc1ccc2c(c1)c(=O)c1c(NCCCN(C)C)ccc3nnn2c31`
Resp: 16.6

Req: What is its TGI for HOP-62 NSCLC? Entry: CN(C)CCC1(C2=CCCC2)CC/C(=C\c2ccc(Cl)cc2)C1=O (stereo not drawn)
Resp: 32.7

Req: What is its TGI for HOP-62 NSCLC? Entry: `CN1CCN(CCCNc2nc3ccc(Oc4ccc(NC(=O)Nc5cc(C(F)(F)F)ccc5F)cc4)cc3[nH]2)CC1`
Resp: 7.25

Req: What is its TGI for HOP-62 NSCLC? Entry: `Cc1cc(NC(=S)SCc2ccc(F)cc2)c([N+](=O)[O-])cc1C`
Resp: 68.1

###

- Tested on: ACHN renal
- test name: NCI tumour cell line growth inhibition, 48 h
readout kind: TGI (µM)
The reply should contain only the number, in µM.

For orientation, consider the following solved cases.
compound="CCCCC1Cc2ccccc2-c2nc3ccccc3n21 (stereo not given)" readout_kind=TGI measured_number=31
compound="COc1cc2[nH]c3c(c2cc1OC)CCN[C@]31CC[C@]2(CC3c4c(cc(OC)c(O)c42)CCN3C)C[C@H]1OC (stereo not given in full)" readout_kind=TGI measured_number=62.4
compound="COC(=O)[C@@]12C(=O)C=CC(=O)C1C1C(=CC2C)OC2OC3(CCCCC3)OC21 (stereo not given in full)" readout_kind=TGI measured_number=30.6

Continue with the next compound.
Req: Record request: TGI value, item `O=C1c2ccsc2C(=O)c2sc(CO)cc21`
Resp: 0.238

###

- System: EKVX NSCLC
- test name: NCI tumour cell line growth inhibition, 48 h; in the data active = GI50 below about 0.43 µM; inactive = the rest
In this exercise, the only acceptable responses are label 1 (active), label 0 (inactive)

Completed entries (count: 3):
compound=C=C(C)[C@@H]1CC[C@]2(CO)CC[C@]3(C)[C@H](CC[C@@H]4[C@@]5(C)C=C(C#N)C(=O)C(C)(C)[C@@H]5CC[C@]43C)[C@@H]12 category="label 0"
compound=NC(=O)c1cc(Cl)ccc1NC(=O)/C=C/c1ccccc1 category="label 0"
compound=COc1ccc2[nH]c3c4[nH]c5ccc(OC)cc5c4c4c(c3c2c1)C(=O)NC4=O category="label 0"

Req: Per the assay record, what outcome was assigned to CCCC(CCC)NCC(O)c1cc(-c2ccc(C(F)(F)F)cc2)nc(C(F)(F)F)c1 (stereo unspecified) ?
Resp: label 0

Req: Per the assay record, what outcome was assigned to `COc1ccc(C(=O)c2cc(OC)c(OC)c(OC)c2)cc1/C=C/C(=O)c1ccc(F)cc1` ?
Resp: label 0

Req: Per the assay record, what outcome was assigned to `COc1ccc(C(=O)c2cc(C)c(OC)c(C)c2)cc1OC(=O)CCl` ?
Resp: label 1

Req: Per the assay record, what outcome was assigned to `COc1ccc(-c2[nH]c3ccc(OC)cc3c2/C=C(\C#N)S(=O)(=O)c2ccccc2)cc1` ?
Resp: label 0

Req: Per the assay record, what outcome was assigned to O=c1cc(NCC(O)CN2CCCC2)n(Cc2ccccc2)c(=O)n1Cc1ccccc1 (stereo unspecified) ?
Resp: label 0

###

- Tested on: OVCAR-4 ovarian
- test name: NCI tumour cell line growth inhibition, 48 h
readout kind: TGI

For orientation, consider the following solved cases.
compound="Nc1nc([O-])c2c(n1)[n+](C1OC(CO)C(O)C1O)cn2CCO (configuration not stated)" target_under_test="OVCAR-4 ovarian" readout_kind=TGI result="> 100 µM"
compound="OCC1OC(n2cnc3c2NC=NC[C@H]3O)C(Cl)C1O (some centres not stated)" target_under_test="OVCAR-4 ovarian" readout_kind=TGI result="> 100 µM"

Req: Record request: TGI value, item `CCOC(=O)Cn1c(=O)ccn(COCCO)c1=O`
Resp: > 100 µM

Req: Record request: TGI value, item `CCN1CCN(c2nc3ccccc3c3c2CCOc2ccccc2-3)CC1`
Resp: > 100 µM

Req: Record request: TGI value, item `COc1ccc(/C=C/c2c(C(=O)/C=C/c3ccccc3)c(C)nc3ccccc23)cc1`
Resp: 6.85 µM

Req: Record request: TGI value, item `N#Cc1[nH]c(=O)n(-c2ccccc2)c1N`
Resp: > 10 µM

Req: Record request: TGI value, item `Nc1ccccc1C#C/C=C\C#Cc1ccccc1N`
Resp: > 100 µM

Req: Record request: TGI value, item c1ccc(C2N3CCCCC3[C@@H]3c4[nH]c5ccccc5c4CCN23)nc1 (some centres not stated)
Resp: > 100 µM

Req: Record request: TGI value, item `Clc1cc(Cl)c2ns[s+]c2c1Cl`
Resp: > 100 µM

Req: Record request: TGI value, item O=c1cc(NCC(O)CN2CCCC2)n(Cc2ccccc2)c(=O)n1Cc1ccccc1 (configuration not stated)
Resp: > 100 µM

Req: Record request: TGI value, item `COc1ccc(CN2CC(C)(C)C2=O)c(OC)c1`
Resp: > 100 µM

Req: Record request: TGI value, item `CCOC(=O)c1cn2c(n1)sc1cc(Cl)ccc12`
Resp: > 100 µM

###

- System: NCI-H23 lung
- test name: NCI tumour cell line growth inhibition, 48 h; in the data active = GI50 below about 0.43 µM; inactive = the rest
In this exercise, the only acceptable responses are yes for active, no for inactive

Completed entries (count: 4):
smiles_repr=COc1ccc(C(=O)c2cc(C)c(OC)c(C)c2)cc1OC(=O)CCl target_under_test="NCI-H23 lung" category=yes
smiles_repr=S=c1ssc(N2CCOCC2)c1Cl target_under_test="NCI-H23 lung" category=no
smiles_repr=COc1cc2oc(-c3ccc(O)cc3)c(OC)c(=O)c2c(O)c1OC target_under_test="NCI-H23 lung" category=no
smiles_repr=CCOC(=O)C1CCN(S(=O)(=O)/N=C2/NC(=O)NC2=C(Cl)Cl)CC1 target_under_test="NCI-H23 lung" category=no

Below: the item to evaluate.
Req: Per the assay record, what outcome was assigned to `c1ccc(Sc2ccc(Cc3nc4cc5ccccc5cc4[nH]3)cc2)cc1` ?
Resp: no

###

- Tested on: HCT-15 colon
- test name: NCI tumour cell line growth inhibition, 48 h; in the data active means GI50 below about 0.43 µM; inactive means the rest
In this exercise, the only acceptable responses are y = active, n = inactive

Completed entries (count: 2):
smiles_repr=O=C(Nc1n[nH]c2cc(-c3ccccc3)ccc12)C1CC1 target_under_test="HCT-15 colon" category=n
smiles_repr=COCC[C@H]1CCC/C=C/[C@@H]2C[C@H](O)C[C@H]2[C@H](O)/C=C/C(=O)O1 target_under_test="HCT-15 colon" category=y

Req: Per the assay record, what outcome was assigned to `COC(=O)Nc1nc2ccc(C3(c4ccc(F)cc4)OCCO3)cc2[nH]1` ?
Resp: y

Req: Per the assay record, what outcome was assigned to `Cc1cc(C)c(NC(=O)c2sc3nc4c(cc3c2N)C(=O)CCC4)c(C)c1` ?
Resp: n

Req: Per the assay record, what outcome was assigned to `COc1cc2ncnc(-n3ncc4cc(NC(=O)Nc5ccccc5)ccc43)c2cc1OC` ?
Resp: n

Req: Per the assay record, what outcome was assigned to `CCc1nc2cc(F)c(/C=C/C(=O)NO)cc2c(=O)n1CCc1ccccc1` ?
Resp: y

Req: Per the assay record, what outcome was assigned to `COc1ccc(/C=C/c2c(C(=O)/C=C/c3ccccc3)c(C)nc3ccccc23)cc1` ?
Resp: n

Req: Per the assay record, what outcome was assigned to `C=C1C(=O)O[C@H]2[C@H]1CC/C(COC(=O)NCCCCNC(=O)OC/C1=C/CC[C@@]3(C)O[C@H]3[C@H]3OC(=O)C(=C)[C@@H]3CC1)=C\CC[C@@]1(C)O[C@@H]21` ?
Resp: n
